Assay read-out pIC50; system under study: DNA polymerase beta (Homo sapiens, UniProt P06746).
One number for each entry, as −log10 of the molar value.

Use these answered entries as a reference point.
[[record]]
compound = "CC[C@H](CC[C@@H](C)[C@H]1CC[C@H]2[C@@H]3CC=C4C[C@@H](O[C@@H]5O[C@H](CO)[C@@H](O)[C@H](O)[C@H]5O)CC[C@]4(C)[C@H]3CC[C@]12C)C(C)C [SITOGLUSIDE]"
measured_property = "pIC50"
numeric_readout = 4.58

[[record]]
compound = "CC(=O)O[C@H]1[C@H](O)C[C@]2(C)[C@H]3CC=C4[C@@H]5[C@@H](C)[C@H](C)CC[C@]5(C(=O)O)CC[C@@]4(C)[C@]3(C)CC[C@H]2C1(C)C"
measured_property = "pIC50"
numeric_readout = 4.67


Given the entry C[C@H]1[C@H](C)CC[C@]2(C(=O)O)CC[C@]3(C)C(=CC[C@@H]4[C@@]5(C)C[C@@H](O)[C@H](O)C(C)(C)[C@@H]5CC[C@]43C)[C@H]12 , report its measured pIC50.
4.90

Where do the numbers come from? From ChEMBL document CHEMBL1151218.
